compounds and their reported melting point

// known answers, use as guide
compound	property	value
CN1C(=O)N(C)C(=O)C(Cc2ccc(Cl)cc2)(NO)C1=O [Compound 3]	melting point	155 to 157 °C
COc1ccc(CC2(NO)C(=O)N(C)C(=O)N(C)C2=O)cc1 [Compound 2]	melting point	108 to 110 °C
CN1C(=O)N(C)C(=O)C(Cc2ccccc2)(NO)C1=O [Compound 1]	melting point	155 to 157 °C

Let us move to another entry and its melting point.
Reported melting point ( CCC1(NO)C(=O)NC(=O)NC1=O [Compound 4] ) = > 300 °C

----------
# assay method text: UV-vis method for pKa determination of compound 4 (Example 20)
# Format: physicochemical
# cond: 0.10 M phosphate buffer, 25° C., read-out: pKa (ring nitrogen proton)
property: pKa

Reported pKa ( CCC1(NO)C(=O)NC(=O)NC1=O ) = ~7.4

----------
# cond: pH 7.4
compounds and their reported k (rate of appearance of BA byproduct, single exponential fit)
Reply numerically in s⁻¹, unit not repeated.

Reported k (rate of appearance of BA byproduct, single exponential fit) ( CN1C(=O)N(C)C(=O)C(Cc2ccccc2)(NO)C1=O ) = 0.00015

Reported k (rate of appearance of BA byproduct, single exponential fit) ( O=C1NC(=O)C(Cc2ccc(Cl)cc2)(NO)C(=O)N1 ) = 0.00016

Reported k (rate of appearance of BA byproduct, single exponential fit) ( O=C1NC(=O)C(Cc2ccccc2Cl)(NO)C(=O)N1 ) = 0.00029

Reported k (rate of appearance of BA byproduct, single exponential fit) ( COc1ccc(CC2(NO)C(=O)NC(=O)NC2=O)cc1 ) = 8.8e-05

Reported k (rate of appearance of BA byproduct, single exponential fit) ( O=C1NC(=O)C(Cc2ccccc2)(NO)C(=O)N1 ) = 0.00013

----------
# cond: pH 7.4
compounds and their reported k (rate of appearance of BA byproduct, single exponential fit)
Reply numerically in s⁻¹, unit not repeated.

CC1(NO)C(=O)NC(=O)NC1=O 0.00025
C=CCC1(NO)C(=O)NC(=O)NC1=O 0.00013

Let us move to another entry and its k (rate of appearance of BA byproduct, single exponential fit).
Reported k (rate of appearance of BA byproduct, single exponential fit) ( CC(C)CC1(NO)C(=O)NC(=O)NC1=O ) = 0.0005

----------
# cond: pH 7.4
compounds and their reported k (rate of appearance of BA byproduct, single exponential fit)
Units required after the number.

// known answers, use as guide
COc1ccc(CC2(NO)C(=O)N(C)C(=O)N(C)C2=O)cc1 8e-05 s⁻¹
O=C1NC(=O)C(Cc2cccs2)(NO)C(=O)N1 0.00029 s⁻¹
CCC1(NO)C(=O)NC(=O)NC1=O 3.7e-05 s⁻¹
CN1C(=O)N(C)C(=O)C(Cc2ccc(Cl)cc2)(NO)C1=O 0.00025 s⁻¹

Let us move to another entry and its k (rate of appearance of BA byproduct, single exponential fit).
Reported k (rate of appearance of BA byproduct, single exponential fit) ( O=C1NC(=O)C(NO)(c2ccccc2)C(=O)N1 ) = 0.00082 s⁻¹

----------
# assay method text: physchem
# cond: buffer, pH 7.4
compounds and their reported half-life
Reply numerically in min, unit not repeated.

// known answers, use as guide
O=C1NC(=O)C(Cc2ccc(Cl)cc2)(NO)C(=O)N1 71
O=C1NC(=O)C(Cc2ccccc2)(NO)C(=O)N1 92
COc1ccc(CC2(NO)C(=O)NC(=O)NC2=O)cc1 132
CC1(NO)C(=O)NC(=O)NC1=O 46
O=C1NC(=O)C(Cc2cccs2)(NO)C(=O)N1 40

Reported half-life ( O=C1NC(=O)C(Cc2ccccc2Cl)(NO)C(=O)N1 ) = 41

Reported half-life ( CC(C)CC1(NO)C(=O)NC(=O)NC1=O ) = 23

Reported half-life ( C=CCC1(NO)C(=O)NC(=O)NC1=O ) = 90

Reported half-life ( O=C1NC(=O)C(NO)(c2ccccc2)C(=O)N1 ) = 14

----------
compounds and their reported half-life
# assay method text: physchem
# cond: buffer, pH 7.4
Reply numerically in h, unit not repeated.

compound	value
CCC(C)C1(NO)C(=O)NC(=O)NC1=O (stereo not drawn) [Compound 18]	32.9

Reported half-life ( CCCC(C)C1(NO)C(=O)NC(=O)NC1=O (stereo not drawn) [Compound 12] ) = 38.5

Reported half-life ( CC(C)C1(NO)C(=O)NC(=O)NC1=O [Compound 11] ) = 62.4
